Data origin: ChEMBL document CHEMBL1126817

Subject of test: Angiotensin II receptor (Rattus norvegicus, UniProt P29089+P25095+P35351)
Assay name: Tested for binding affinity by measuring displacement of [125I]-Sar1 Ile8 angiotensin II from rat adrenal cortical membranes
Format: cell membranes, Membrane
Endpoint label: Ki (nM)

Some compounds with recorded Ki:
CCCCc1c(Cc2ccc(-c3ccccc3-c3nn[nH]n3)cc2)[n+]([O-])c2ccccc2[n+]1[O-]: 2.6
CCCCc1nc2ccccc2nc1Cc1ccc(-c2ccccc2-c2nn[nH]n2)cc1: 7

A = CCCCc1nc2ccccc2[n+]([O-])c1Cc1ccc(-c2ccccc2-c2nn[nH]n2)cc1
B = CCCCc1nc2cccc(C(=O)O)c2nc1Cc1ccc(-c2ccccc2-c2nn[nH]n2)cc1
C = CCCCc1c(Cc2ccc(-c3ccccc3-c3nn[nH]n3)cc2)nc2ccccc2[n+]1[O-]
List these items ordered by Ki, big to small. Answer with the labels in sequence, matching the requested order. C, B, A
